Recorded values, source PubChem BioAssay AID463079.

# experimental_details: ATP-evoked calcium signal inhibitors, parental CHO, primary screen, counter-screen for OX1R antagonist project, cell-based, fluorescence, Fluo-8 calcium dye (AID 463079)
# particulars: parental CHO-K1, ATP-induced calcium, Fluo-8 fluorescence; at 5.6 µM; active compounds read high
Among all 330,000 compounds or so, about 2,000 (0.61%) were called active. Shown is part of a subset that was picked to be rich in actives.
Values of inhibition greater than or equal to 20% map to y; values below map to n.

CCSc1nsc(NC(=O)Nc2ccccc2OC)n1 | n
Oc1c(Cl)cc(Cl)c(Cl)c1Cc1c(O)c(Cl)cc(Cl)c1Cl | y
CN(C(=O)CC1C(=O)NCCN1Cc1ccc(F)cc1Cl)C1CCCCC1 (stereo not given) | n
COC(=O)[C@@H]1C[C@@]2(O)[C@H](O)[C@H](O)[C@H](O)C[C@H]2N1Cc1ccc(C)s1 | n
NC(N)=N/N=C/c1ccc(OCc2ccc(Cl)cc2Cl)cc1 | y
CC1(C)C2CC[C@]3(C)C(CC=C4[C@@H]5C[C@@](C)(CO)CC[C@]5(C(=O)O)CC[C@]43C)[C@@]2(C)CC[C@@H]1O (stereo not given in full) | n
COc1ccc(N2CCN(c3ccc([N+](=O)[O-])cc3Cl)CC2)cc1 | n
COc1cc(OC)c(-n2c(C)cc(C=O)c2C)cc1Cl | n
CSc1nsc(NC(=O)Nc2ccccc2)n1 | n
CCSc1nsc(NC(=O)Nc2cccc(C(C)=O)c2)n1 | y
